YAP1 (% UTC) values, listed per item
system: Yap1 mRNA; experiment: Antisense inhibition of human Yap1 in A-431 cells by cEt gapmers, single dose (Example 4, RTS4814); type: cell-based; details: Yap1 mRNA remaining as percent of untreated control; 3-10-3 cEt gapmers; A-431 cells; Table 37
Strand notation (5' to 3'): a small letter for the sugar, then the base; units joined by * are phosphorothioate-linked, units joined directly phosphodiester-linked; [ ] holds rarer units or linkages, { } end groups; capitals alone tell only the bases. k = constrained ethyl (cEt); [5mC] = 5-methylcytosine; d = 2'-deoxy (DNA)

{"substance": "1074455 (k[5mC]*kA*kT*dT*dA*dT*dG*dT*dG*dA*d[5mC]*dT*dA*kA*kT*kG; antisense) [compound 1074455]", "YAP1 (% UTC)": 67}
{"substance": "1076279 (k[5mC]*kA*kA*dT*dA*dA*dG*dG*dA*d[5mC]*dA*dG*dG*kA*k[5mC]*k[5mC]; antisense) [compound 1076279]", "YAP1 (% UTC)": 71}
{"substance": "1076055 (kA*kA*kT*dT*dA*d[5mC]*dT*dA*dA*d[5mC]*dA*dA*dT*k[5mC]*kT*k[5mC]; antisense) [compound 1076055]", "YAP1 (% UTC)": 45}
